molecular target: ATP-dependent translocase ABCB1 (Homo sapiens); experiment: Inhibition of P-glycoprotein-mediated daunorubicin efflux from human CCRF-CEM/VCR1000 cells after 240 secs by FACS flow cytometric analysis; conditions: read-out: pIC50 (converted)
Sequence (P08183 whole entry): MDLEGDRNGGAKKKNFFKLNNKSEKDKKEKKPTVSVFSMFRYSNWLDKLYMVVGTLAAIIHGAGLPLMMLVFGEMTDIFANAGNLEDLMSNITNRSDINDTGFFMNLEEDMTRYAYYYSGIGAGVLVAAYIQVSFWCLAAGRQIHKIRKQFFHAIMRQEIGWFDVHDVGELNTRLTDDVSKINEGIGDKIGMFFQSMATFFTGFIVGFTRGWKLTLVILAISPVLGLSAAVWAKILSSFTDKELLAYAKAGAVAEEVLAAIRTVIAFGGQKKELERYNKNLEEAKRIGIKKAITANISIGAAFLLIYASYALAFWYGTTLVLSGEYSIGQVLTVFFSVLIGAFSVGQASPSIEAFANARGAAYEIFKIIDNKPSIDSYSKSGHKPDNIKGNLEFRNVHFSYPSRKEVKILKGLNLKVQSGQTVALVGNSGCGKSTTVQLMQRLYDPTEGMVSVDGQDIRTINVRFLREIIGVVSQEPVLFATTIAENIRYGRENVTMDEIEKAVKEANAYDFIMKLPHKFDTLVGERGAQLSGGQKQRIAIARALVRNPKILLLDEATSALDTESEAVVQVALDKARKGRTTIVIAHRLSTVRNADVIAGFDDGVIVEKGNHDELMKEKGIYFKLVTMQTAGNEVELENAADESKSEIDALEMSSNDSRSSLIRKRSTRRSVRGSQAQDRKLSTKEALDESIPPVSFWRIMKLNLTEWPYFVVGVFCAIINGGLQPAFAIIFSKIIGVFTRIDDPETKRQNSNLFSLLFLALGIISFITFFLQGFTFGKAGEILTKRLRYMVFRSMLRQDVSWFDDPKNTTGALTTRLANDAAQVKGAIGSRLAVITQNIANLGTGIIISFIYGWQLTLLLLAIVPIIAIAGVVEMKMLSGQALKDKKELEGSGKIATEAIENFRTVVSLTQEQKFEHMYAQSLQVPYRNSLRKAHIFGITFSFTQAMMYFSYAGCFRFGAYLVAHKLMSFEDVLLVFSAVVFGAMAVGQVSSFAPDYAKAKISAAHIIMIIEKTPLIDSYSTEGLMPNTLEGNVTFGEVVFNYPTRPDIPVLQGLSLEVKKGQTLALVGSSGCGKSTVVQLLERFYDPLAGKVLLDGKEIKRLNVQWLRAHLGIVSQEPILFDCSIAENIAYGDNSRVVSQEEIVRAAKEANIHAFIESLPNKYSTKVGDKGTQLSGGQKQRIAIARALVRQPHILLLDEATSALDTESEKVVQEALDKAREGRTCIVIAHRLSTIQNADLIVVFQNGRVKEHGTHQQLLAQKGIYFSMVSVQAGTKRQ
IC50 by entry:

As a guide, the following entries are already answered.
[
  {
    "compound": "O=C(CCc1ccccc1)c1ccccc1OCC(O)CN1CCC(O)(c2ccccc2)CC1 (centres undefined)",
    "IC50": "57.5 nM"
  },
  {
    "compound": "COc1cc2c(cc1OC)CN(CCc1ccc(NC(=O)c3cc(OC)c(OC)cc3NC(=O)c3cnc4ccccc4c3)cc1)CC2",
    "IC50": "33.1 nM"
  },
  {
    "compound": "CCOC/C=C/c1ccc(-c2nc(-c3ccc(NC(C)C)cc3)c(-c3ccc(NC(C)C)cc3)[nH]2)cc1",
    "IC50": "31.6 nM"
  }
]

Let us move to another entry and its IC50.
Reported IC50 for ATP-dependent translocase ABCB1 (Homo sapiens), given O=C(CCc1ccccc1)c1ccccc1OCC(O)CN1CCCCC1 (centres undefined) ?
603 nM
